Test name: AUC in FVB mouse plasma at 10 mg/kg, po administered as single dose
Type: ADME, organism-based
Design: dose 10 mg/kg, route oral
The following compounds are listed with their measured AUC values.
# output: bare number, implied unit µM·h

Record excerpt, results attached:
Cc1ccnc(Nc2nc(-c3ccc(-c4ccccn4)s3)cs2)c1
0.82
C(=N/Nc1ccc(-c2cnco2)cc1)/c1ccncc1
2.06

Now look at this entry.
Task: For Cc1cccc(Nc2nc(-c3ccc(-c4ccccc4)cc3)cs2)n1 , write its AUC.
Output: 11.2

----------
The following compounds are listed with their measured half-life values.
Test name: Half life in FVB mouse plasma at 1 mg/kg, iv administered as single dose
Format: ADME, organism-based
Design: dose 1 mg/kg, route intravenous
# output: bare number, implied unit h

Record excerpt, results attached:
C(=N/Nc1ccc(-c2cnco2)cc1)/c1ccncc1
0.22
Cc1ccnc(Nc2nc(-c3ccc(-c4ccccn4)s3)cs2)c1
1.18

Now look at this entry.
Task: For Cc1cccc(Nc2nc(-c3ccc(-c4ccccc4)cc3)cs2)n1 , write its half-life.
Output: 2.16
